EC50 overview
- test system: hGLP1R (Homo sapiens)
- Construct: expressed in transfected cells; host or cells: HEK-293 cells carrying a CRE-luciferase reporter gene
- Sequence (P43220 24-463): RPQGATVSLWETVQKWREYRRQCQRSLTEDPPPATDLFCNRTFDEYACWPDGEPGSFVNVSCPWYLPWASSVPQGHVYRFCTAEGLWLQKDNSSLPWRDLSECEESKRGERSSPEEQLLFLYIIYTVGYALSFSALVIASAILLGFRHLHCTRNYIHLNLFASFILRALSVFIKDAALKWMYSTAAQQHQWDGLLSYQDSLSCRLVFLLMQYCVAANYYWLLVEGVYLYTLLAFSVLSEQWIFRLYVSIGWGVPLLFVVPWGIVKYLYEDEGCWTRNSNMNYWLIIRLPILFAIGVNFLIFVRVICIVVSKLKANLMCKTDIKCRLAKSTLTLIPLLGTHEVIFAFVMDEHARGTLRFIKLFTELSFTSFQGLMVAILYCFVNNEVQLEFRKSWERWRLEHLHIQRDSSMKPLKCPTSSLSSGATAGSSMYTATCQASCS
- test protocol: hGLP1R CreLuc reporter gene assay in 0.5% and 100% plasma
- Assay type: cell-based
- test conditions: CreLuc reporter gene assay, 0.5% human plasma; read-out: hGLP1R 0.5% hP
Starred links: 1 amine or outer side, 2 acyl side, 3 side chain; linkers in the order of their positions; H or OH if unused. Positions of bridges follow the written chain, without caps; N, C: chain ends. Non-standard residues stand in square brackets, D forms with d. Groups on a side chain read outwards from the residue. Chains are numbered I, II in the order given. No end group written: not given here. *: point of attachment. C20 diacid = O=C(O)CCCCCCCCCCCCCCCCCCC(=O)*; C18 diacid = O=C(O)CCCCCCCCCCCCCCCCC(=O)*; γGlu = O=C(O)[C@H](CCC(=O)[*:2])N[*:1]; εLys = N[C@@H](CCCCN[*:1])C(=O)[*:2]; NMeR = CN[C@@H](CCCNC(=N)N)C(=O)O; AEEA = NCCOCCOCC(=O)O; Aib = CC(C)(N)C(=O)O
test readout: EC50 (nM)

# substance, test readout, unit, quantitative result
records = [
    ("Y[Aib]EGTFTSDYSI[Aib]LEKQAQ[Aib]AFVEWLIK([AEEA-AEEA-γGlu-γGlu-γGlu-γGlu-γGlu-C20 diacid])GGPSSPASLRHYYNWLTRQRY-NH2 [Compound 120]", "EC50", "nM", 0.11),
    ("Y[Aib]EGTFTSDYSI[Aib]LEKQAQ[Aib]AFVEWLIK([εLys-γGlu-γGlu-γGlu-γGlu-γGlu-γGlu-γGlu-C20 diacid])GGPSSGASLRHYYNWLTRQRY-NH2 [Compound 225]", "EC50", "nM", 0.12),
    ("H-Y[Aib]EGTFTSDYSI[Aib]LEKQAQ[Aib]AFVQWLIK([εLys-γGlu-γGlu-γGlu-γGlu-γGlu-γGlu-C20 diacid])GGPSEGVSLRHYYNWLTRQRY-NH2 [Compound 114]", "EC50", "nM", 0.15),
    ("H-Y[Aib]EGTFTSDYSI[Aib]LEEQAQ[Aib]AFVEWLIK([εLys-AEEA-γGlu-γGlu-γGlu-γGlu-γGlu-C20 diacid])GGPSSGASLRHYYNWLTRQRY-NH2 [Compound 110]", "EC50", "nM", 0.15),
    ("H-Y[Aib]EGTFTSDYSI[Aib]LEKQAQ[Aib]AFVQWLIK([εLys-γGlu-γGlu-γGlu-γGlu-γGlu-γGlu-C20 diacid])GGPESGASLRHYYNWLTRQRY-NH2 [Compound 37]", "EC50", "nM", 0.11),
    ("H-Y[Aib]EGTFTSDYSI[Aib]LEKQAQ[Aib]AFVEWLIK([γGlu-γGlu-γGlu-γGlu-γGlu-γGlu-C20 diacid])GGGSEYVSLRHYYNWLTRQRY-NH2 [Compound 65]", "EC50", "nM", 2.65),
    ("H-Y[Aib]EGTFTSDYSI[Aib]LEKQAQ[Aib]AFVQWLIK([AEEA-AEEA-γGlu-γGlu-γGlu-γGlu-γGlu-C20 diacid])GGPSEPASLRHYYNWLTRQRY-NH2 [Compound 111]", "EC50", "nM", 0.12),
    ("H-Y[Aib]EGTFTSDYSI[Aib]LEKQAQ[Aib]AFVQWLIK([εLys-γGlu-γGlu-γGlu-γGlu-γGlu-C20 diacid])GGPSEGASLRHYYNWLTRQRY-NH2 [Compound 242]", "EC50", "nM", 0.13),
    ("Y[Aib]EGTFTSDYSI[Aib]LEKQAQ[Aib]EFVQWLIK([AEEA-AEEA-γGlu-γGlu-γGlu-C18 diacid])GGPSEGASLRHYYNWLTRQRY-NH2 [Compound 160]", "EC50", "nM", 0.3),
    ("H-Y[Aib]EGTFTSDYSI[Aib]LEKQAQ[Aib]AFVEWLIK([εLys-γGlu-γGlu-γGlu-γGlu-γGlu-γGlu-C20 diacid])GGPSSGAS[Aib]RHY[Aib]NR[Aib]TRQRY-NH2 [Compound 4]", "EC50", "nM", 0.09),
    ("H-Y[Aib]EGTFTSDYSI[Aib]LEKQAQ[Aib]AFVQWLIK([εLys-γGlu-γGlu-γGlu-γGlu-γGlu-C18 diacid])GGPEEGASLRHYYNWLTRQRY-NH2 [Compound 143]", "EC50", "nM", 0.13),
    ("H-Y[Aib]EGTFTSDYSI[Aib]LEEQAQ[Aib]AFVQWLIK([εLys-AEEA-γGlu-γGlu-γGlu-γGlu-γGlu-C20 diacid])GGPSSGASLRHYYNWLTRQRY-NH2 [Compound 45]", "EC50", "nM", 0.11),
    ("H-Y[Aib]EGTFTSDYSI[Aib]LEKQAQ[Aib]AFVQWLIK([AEEA-AEEA-Glu-Glu-Glu-Glu-C20 diacid])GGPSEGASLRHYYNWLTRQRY-NH2 [Compound 239]", "EC50", "nM", 0.11),
    ("H-Y[Aib]EGTFTSDYSI[Aib]LEKQAE[Aib]AFVQWLIK([AEEA-AEEA-γGlu-γGlu-γGlu-γGlu-C18 diacid])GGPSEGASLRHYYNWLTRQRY-NH2 [Compound 156]", "EC50", "nM", 0.18),
    ("H-Y[Aib]EGTFTSDYSI[Aib]LEKQAQ[Aib]AFVEWLIK([AEEA-AEEA-γGlu-γGlu-γGlu-γGlu-γGlu-C18 diacid])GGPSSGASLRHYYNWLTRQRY-NH2 [Compound 261]", "EC50", "nM", 0.15),
    ("H-Y[Aib]EGTFTSDYSI[Aib]LEKQAQ[Aib]AFVEWLIK([εLys-γGlu-γGlu-γGlu-γGlu-γGlu-γGlu-C20 diacid])GGPSSGASL[Aib]HYYNWLTRQRY-NH2 [Compound 129]", "EC50", "nM", 0.04),
    ("H-Y[Aib]EGTFTSDYSI[Aib]LEEQAQ[Aib]AFVEWLIK([εLys-γGlu-γGlu-γGlu-γGlu-γGlu-γGlu-C20 diacid])GGPSSGQSLRHYYNWLTRQRY-NH2 [Compound 31]", "EC50", "nM", 0.06),
    ("H-Y[Aib]EGTFTSDYSI[Aib]LEKQAQ[Aib]AFVEWLIK([εLys-γGlu-γGlu-γGlu-γGlu-γGlu-γGlu-C20 diacid])GGPSSPESLRHYYNWLTRQRY-NH2 [Compound 73]", "EC50", "nM", 0.19),
    ("I: H-Y[Aib]EGTFTSDYSI[Aib]LEKQAQ[Aib]EFVQWLIKGGPSEGASLRHYYNWLTRQRY-NH2 / II: {C18 diacid}-EEEEEE (amide I:28-II:C) [Compound 179]", "EC50", "nM", 0.22),
    ("H-Y[Aib]EGTFTSDYSI[Aib]LEKQAQ[Aib]AFVEWLIK([εLys-γGlu-γGlu-γGlu-γGlu-γGlu-γGlu-C20 diacid])GGPSEGASLRHYYNWLTRQ[NMeR]Y-NH2 [Compound 236]", "EC50", "nM", 0.26),
]
